tested on: HepG2, DU145 and MBA-MB-231 cancer cell lines; assay: MTT cytotoxicity, stated jointly for the three cancer cell lines; type: cell-based; details: Homo sapiens; summary statement for HepG2, DU145 and MBA-MB-231; read-out: IC50 against all three cancer cell lines
pIC50: −log10 of the molar value.
endpoint label: pIC50

Solved cases below.
> print(dat)
                                   compound        result
1  COc1nc(-c2cc(Cl)sc2Cl)cc(-c2ccc(Cl)cc2)c1C#N [5c]        < 4.00
2  COc1nc(-c2cc(Cl)sc2Cl)cc(-c2ccc(Br)cc2)c1C#N [5d]  5.30 to 6.00

Next item in the queue.
Fill in: pIC50 of COc1nc(-c2cc(Cl)sc2Cl)cc(-c2ccc([N+](=O)[O-])cc2)c1C#N [5h] is ___
5.30 to 6.00

* * *

system: DU145; experiment: MTT cytotoxicity assay, DU145 prostate cancer cells; assay type: cell-based, human; conditions: Homo sapiens, DU-145; DU145 prostate cancer cells, MTT
endpoint label: pIC50
Answers are plain numbers, as −log10 of the molar value.

> print(dat)
                                   molecule  assayed.system  readout.number
1  COc1cc(-c2ccc(Cl)cc2)cc(-c2cc(Cl)sc2Cl)n1           DU145            4.66
2  O=c1[nH]cc(F)c(=O)[nH]1 [5-fluorouracil, reference compound]           DU145            5.72

Next item in the queue.
Give DU145 pIC50 for "COc1cc(-c2ccc(Br)cc2)cc(-c2cc(Cl)sc2Cl)n1"
4.53
